study.system: P2Y purinoceptor 1 (Meleagris gallopavo)
Sequence (P49652 whole entry): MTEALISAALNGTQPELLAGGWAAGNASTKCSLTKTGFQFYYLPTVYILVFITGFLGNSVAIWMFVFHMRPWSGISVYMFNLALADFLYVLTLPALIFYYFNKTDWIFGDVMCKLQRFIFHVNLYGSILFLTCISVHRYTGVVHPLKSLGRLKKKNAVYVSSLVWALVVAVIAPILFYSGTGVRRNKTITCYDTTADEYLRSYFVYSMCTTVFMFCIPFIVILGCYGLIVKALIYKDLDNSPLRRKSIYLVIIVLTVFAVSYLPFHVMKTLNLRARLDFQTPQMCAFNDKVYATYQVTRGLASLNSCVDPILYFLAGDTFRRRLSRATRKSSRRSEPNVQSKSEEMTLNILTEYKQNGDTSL
procedure.summary: Agonistic activity for P2Y purinoceptor 1 of turkey erythrocyte membranes
Format: functional
pEC50: −log10 of the molar value.
reported.metric: pEC50

Consider the following illustrative entries.
compound	numeric.readout
CCCCCCSc1nc(N)c2ncn([C@@H]3O[C@H](COP(O)(=S)OP(=O)(O)OP(=O)(O)O)[C@@H](O)[C@H]3O)c2n1 (stereo in doubt; 5aA)	7.77
Nc1nc(SCCc2ccc([N+](=O)[O-])cc2)nc2c1ncn2C1O[C@H](COP(=O)(O)O)[C@@H](O)[C@H]1O (some centres undefined)	5.52

(A) Nc1nc(SCCc2ccc([N+](=O)[O-])cc2)nc2c1ncn2[C@@H]1O[C@H](COP(O)(=S)OP(=O)(O)OP(=O)(O)O)[C@@H](O)[C@H]1O (stereo in doubt; 5bB)
(B) CCCCCCSc1nc(N)c2ncn(C3O[C@H](COP(=O)(O)OP(=O)(O)OP(=O)(O)O)[C@@H](O)[C@H]3O)c2n1 (some centres undefined)
Lab note: record which item had the higher pEC50, A or B . Returns: label corresponding to the selected item.
B
(B: 8.00, A: 6.05)

Values were extracted from ChEMBL document CHEMBL1132379.
